Biological target: NACHT, LRR and PYD domains-containing protein 3 (Mus musculus, UniProt Q8R4B8)
Sequence (Q8R4B8 whole entry, the tested form may be a part): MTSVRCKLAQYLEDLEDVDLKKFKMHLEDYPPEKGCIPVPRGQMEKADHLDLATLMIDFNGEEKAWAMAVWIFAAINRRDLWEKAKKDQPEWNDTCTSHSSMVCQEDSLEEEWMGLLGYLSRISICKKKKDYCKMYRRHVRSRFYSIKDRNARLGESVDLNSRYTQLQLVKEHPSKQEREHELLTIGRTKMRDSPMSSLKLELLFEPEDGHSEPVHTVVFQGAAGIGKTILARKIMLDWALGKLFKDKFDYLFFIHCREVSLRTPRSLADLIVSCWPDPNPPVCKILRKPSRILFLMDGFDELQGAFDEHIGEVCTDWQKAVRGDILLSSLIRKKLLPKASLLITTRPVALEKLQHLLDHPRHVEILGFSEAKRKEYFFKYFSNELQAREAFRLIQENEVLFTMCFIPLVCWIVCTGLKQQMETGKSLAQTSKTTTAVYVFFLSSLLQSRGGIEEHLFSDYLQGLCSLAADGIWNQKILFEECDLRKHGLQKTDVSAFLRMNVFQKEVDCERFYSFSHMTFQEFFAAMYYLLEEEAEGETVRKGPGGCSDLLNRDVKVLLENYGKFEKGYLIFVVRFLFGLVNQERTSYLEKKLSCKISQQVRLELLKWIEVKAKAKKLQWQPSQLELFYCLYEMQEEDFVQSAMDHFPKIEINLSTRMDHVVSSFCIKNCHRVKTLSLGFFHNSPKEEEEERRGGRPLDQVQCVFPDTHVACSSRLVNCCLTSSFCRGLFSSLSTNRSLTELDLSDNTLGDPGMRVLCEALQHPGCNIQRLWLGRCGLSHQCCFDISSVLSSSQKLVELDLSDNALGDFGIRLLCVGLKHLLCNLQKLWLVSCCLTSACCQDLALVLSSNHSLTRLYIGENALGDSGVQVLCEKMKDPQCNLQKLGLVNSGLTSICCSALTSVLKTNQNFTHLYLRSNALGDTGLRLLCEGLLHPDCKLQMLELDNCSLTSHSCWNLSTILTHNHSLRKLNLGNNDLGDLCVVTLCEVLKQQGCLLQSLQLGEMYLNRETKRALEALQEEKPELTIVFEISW
Assay: Inhibition of NLRP3 inflammasome activation in ICR mouse BMDM assessed as inhibition of LPS/ATP-stimulated IL-1 beta production in cell supernatant treated for 3 hrs with LPS followed by incubation with compound for 1 hr and later stimulated with ATP for 0.5 hrs by ELISA
Assay type: cell-based
READOUT: IC50 (nM)

- QUERY_SMILES: "C=C1C(=O)[C@]23[C@H](OC(=O)NC4CCCCC4)[C@H]1CC[C@H]2[C@]12C=CCC(C)(C)[C@H]1[C@H](O)[C@@]3(O)OC2"
  ENDPOINT_UNIT: "nM"
  REPORTED_MEASUREMENT: 135

[1] C=C1C(=O)[C@]23[C@H](OC(=O)NC4CCCC4)[C@H]1CC[C@H]2[C@]12C=CCC(C)(C)[C@H]1[C@H](O)[C@@]3(O)OC2
[2] C=C1C(=O)[C@]23[C@H](O)[C@H]1CC[C@H]2[C@@]12CO[C@]3(O)[C@@H](O)[C@@H]1C(C)(C)CC[C@@H]2O
Q) I'm curious, which of these has a smaller IC50 number: 1 or 2 ? Your choice should be expressed through its label.
A) 1

* * *

Target: NACHT, LRR and PYD domains-containing protein 3 (Homo sapiens)
Sequence (Q96P20 whole entry, the tested form may be a part): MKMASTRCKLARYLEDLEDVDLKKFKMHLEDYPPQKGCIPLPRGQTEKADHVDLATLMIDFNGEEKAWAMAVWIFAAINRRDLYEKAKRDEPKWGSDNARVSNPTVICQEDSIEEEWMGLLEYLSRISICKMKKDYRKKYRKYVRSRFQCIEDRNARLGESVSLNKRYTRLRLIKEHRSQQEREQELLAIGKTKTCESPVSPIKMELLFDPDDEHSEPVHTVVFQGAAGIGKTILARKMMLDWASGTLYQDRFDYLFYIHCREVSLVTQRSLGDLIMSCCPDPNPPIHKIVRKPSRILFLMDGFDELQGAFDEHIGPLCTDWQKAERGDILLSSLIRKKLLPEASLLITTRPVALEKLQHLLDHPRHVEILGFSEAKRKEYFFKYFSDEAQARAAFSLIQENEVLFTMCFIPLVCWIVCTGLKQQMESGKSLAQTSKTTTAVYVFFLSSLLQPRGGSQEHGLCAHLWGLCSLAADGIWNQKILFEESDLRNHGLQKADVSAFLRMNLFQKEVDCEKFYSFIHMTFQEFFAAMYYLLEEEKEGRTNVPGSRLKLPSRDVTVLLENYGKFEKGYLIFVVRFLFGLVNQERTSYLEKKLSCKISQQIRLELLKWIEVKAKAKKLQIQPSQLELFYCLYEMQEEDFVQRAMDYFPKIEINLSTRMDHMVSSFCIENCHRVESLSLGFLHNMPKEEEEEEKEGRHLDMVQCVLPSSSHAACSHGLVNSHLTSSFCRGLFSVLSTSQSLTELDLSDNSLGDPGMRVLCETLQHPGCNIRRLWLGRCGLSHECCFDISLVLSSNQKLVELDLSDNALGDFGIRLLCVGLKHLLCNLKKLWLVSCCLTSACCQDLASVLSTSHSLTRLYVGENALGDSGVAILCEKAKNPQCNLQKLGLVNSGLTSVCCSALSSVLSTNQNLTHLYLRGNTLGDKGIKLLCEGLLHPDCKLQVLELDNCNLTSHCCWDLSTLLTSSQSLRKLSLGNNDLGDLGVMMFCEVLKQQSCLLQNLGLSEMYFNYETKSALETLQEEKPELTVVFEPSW
Test: Binding affinity to NLRP3 (unknown origin) by SPR assay
READOUT: Kd (µM)
Only the number, expressed in µM, is required.

Q) Find the recorded Kd belonging to `C=C1C(=O)[C@]23[C@H](OC(=O)Nc4ccc(F)cc4)[C@H]1CC[C@H]2[C@]12C=CCC(C)(C)[C@H]1[C@H](O)[C@@]3(O)OC2` and report it.
A) 5.17

* * *

Molecular target: NACHT, LRR and PYD domains-containing protein 3 (Mus musculus, UniProt Q8R4B8)
Experiment: Inhibition of NLRP3 inflammasome activation in ICR mouse BMDM assessed as inhibition of LPS/ATP-stimulated IL-1 beta production in cell supernatant treated for 3 hrs with LPS followed by incubation with compound for 1 hr and later stimulated with ATP for 0.5 hrs by ELISA
Format: cell-based
pIC50: −log10 of the molar value.
READOUT: pIC50

- QUERY_SMILES: "C=C1C(=O)[C@]23[C@H](OC(=O)Nc4ccccc4Cl)[C@H]1CC[C@H]2[C@]12C=CCC(C)(C)[C@H]1[C@H](O)[C@@]3(O)OC2"
  pIC50: 7.05
- QUERY_SMILES: "C=C1C(=O)[C@]23[C@H](O)[C@H]1CC[C@H]2[C@]12C=CCC(C)(C)[C@H]1[C@H](O)[C@@]3(O)OC2"
  pIC50: 6.88
- QUERY_SMILES: "C=C1C(=O)[C@]23[C@H](OC(=O)Nc4cccc5ccccc45)[C@H]1CC[C@H]2[C@]12C=CCC(C)(C)[C@H]1[C@H](O)[C@@]3(O)OC2"
  pIC50: 7.13
- QUERY_SMILES: "C=C1C(=O)[C@]23[C@H](OC(=O)Nc4cccc(Cl)c4)[C@H]1CC[C@H]2[C@]12C=CCC(C)(C)[C@H]1[C@H](O)[C@@]3(O)OC2"
  pIC50: 7.09

[1] C=C1C(=O)[C@]23[C@H](OC(=O)Nc4ccccn4)[C@H]1CC[C@H]2[C@]12C=CCC(C)(C)[C@H]1[C@H](O)[C@@]3(O)OC2
[2] C=C1C(=O)[C@]23[C@H](OC(=O)Nc4ccc(F)cc4)[C@H]1CC[C@H]2[C@]12C=CCC(C)(C)[C@H]1[C@H](O)[C@@]3(O)OC2
Q) Looking at recorded values for pIC50, does 1 or 2 come in lower? Give the label of your selection.
A) 1
(1: 7.02, 2: 7.38)
